Target: GlcNAc(b1-3)Gal(b1-4)GlcNAc(b1-3)Gal(b1-4)GlcNAc(b1-2)[GlcNAc(b1-3)Gal(b1-4)GlcNAc(b1-3)Gal(b1-4)GlcNAc(b1-6)]Man(a1-6)[GlcNAc(b1-3)Gal(b1-4)GlcNAc(b1-3)Gal(b1-4)GlcNAc(b1-2)Man(a1-3)]Man(b1-4)GlcNAc(b1-4)[Fuc(a1-6)]GlcNAc
Test: glycan array binding signal (z-score within array); higher = stronger binding
Settings: glycan notation: IUPAC condensed, linker removed
About 410 targets per protein were measured; listed, in parts, are those with the strongest signals and a random draw of the rest.
measured endpoint: glycan array binding signal (z-score)
Answers are plain numbers.

Erv41-EDTA (Saccharomyces cerevisiae), Q04651 (protein) MKFLVNVALVFMVVYISYIYAAAPEHHHHHHDYDIPTTENLYFQGAMGYIDQQYVVDSQVRDTVQINMDIYVNTKCDWLQINVRDQTMDRKLVLEELQLEEMPFFIPYDTKVNDINEIITPELDEILGEAIPAEFREKLDTRSFFDESDPNKAHLPEFNGCHVFGSIPVNRVSGELQITAKSLGYVASRKAPLEELKFNHVINEFSFGDFYPYIDNPLDNTAQFNQDEPLTTYVYYTSVVPTLFKKLGAEVDTNQYSVNDYRYLYKDVAAKGDKMPGIFFKYNFEPLSIVVSDVRL    1.25

# next binder below
Could you share which glycan array binding signal (z-score) value was measured for DC-ASGPR L+GEE (Homo sapiens) (protein) MTRTYENFQYLENKVKVQGFKNGPLPLQSLLQRLRSGPCHLLLSLGLGLLLLVIICVVGFQNSKFQRDLVTLRTDFSNFTSNTVAEIQALTSQGSSLEETIASLKAEVEGFKQERQAGVSELQEHTTQKAHLGHCPHCPSVCVPVHSEMLLRVQQLVQDLKKLTCQVATLNNNGEEASTEGTCCPVNWVEHQDSCYWFSHSGMSWAEAEKYCQLKNAHLVVINSREEQNFVQKYLGSAYTWMGLSDPEGAWKWVDGTDYATGFQNWKPGQPDDWQGHGLGGGEDCAHFHPDGRWNDDVCQRPYHWVCEAGLGQTSQESH ?
0.194

These measurements were taken from the supplement of paper PMC8728848.
